Target: serum sample IHUS#B09032311A3 (pre-existing antibodies against ISV)
Assay: ECL drug displacement assay, variant as competitor against labelled SEQ ID NO:1
MEASURED_METRIC: ECLU confirmatory assay (ECLU)
Give the value, in units of ECLU, as a plain number.

Answered examples (3):
BINDER	ECLU confirmatory assay [ECLU]
Example 1C: (K83R) (VHH) VHH: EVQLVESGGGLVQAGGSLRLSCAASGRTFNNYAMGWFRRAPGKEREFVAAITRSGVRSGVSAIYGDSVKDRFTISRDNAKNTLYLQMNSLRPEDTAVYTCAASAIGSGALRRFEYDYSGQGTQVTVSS	1400
Example 1C: (A14P) (VHH) VHH: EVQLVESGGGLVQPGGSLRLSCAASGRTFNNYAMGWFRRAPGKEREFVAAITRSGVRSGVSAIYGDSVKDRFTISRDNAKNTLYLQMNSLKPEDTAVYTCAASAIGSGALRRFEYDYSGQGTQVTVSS	205
Example 1c: (A14P, R39Q, K83R,T91Y, Q108L) (VHH) VHH: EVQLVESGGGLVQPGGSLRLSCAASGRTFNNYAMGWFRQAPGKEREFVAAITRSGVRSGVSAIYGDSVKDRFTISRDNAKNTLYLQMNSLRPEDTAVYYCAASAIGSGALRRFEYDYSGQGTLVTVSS	228

Now for the binder whose ECLU confirmatory assay we want.
Asked: What value of ECLU confirmatory assay has been recorded for this entry: Example 1C: (A14P, R39Q, K83R, T91Y, Q108L)-3A (VHH) VHH: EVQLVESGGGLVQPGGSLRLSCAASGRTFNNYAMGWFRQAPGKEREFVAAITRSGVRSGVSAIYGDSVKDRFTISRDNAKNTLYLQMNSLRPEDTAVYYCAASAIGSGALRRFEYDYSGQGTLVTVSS
Given back: 1930
